# target under test: CD28 (Homo sapiens, UniProt P10747)
# test: Flow binding to Jurkat/IL2 reporter cells (CD28)
# Parameters: host or cells: Jurkat cells expressing an IL-2-luciferase reporter
# condition info: Table E11; Jurkats (CD28); 33.3 nM
quantity kind: CD28 MFI at 33.3 nM

- T13R/Q33L/E35D/M47L/V68M/L85M (protein, UniProt P33681 35-288, looked up, variant T13R Q33L E35D M47L V68M L85M) T-lymphocyte activation …: VIHVTKEVKEVARLSCGHNVSVEELAQTRIYWLKDKKMVLTMMSGDLNIWPEYKNRTIFDITNNLSIMILALRPSDEGTYECVVMKYEKDAFKREHLAEVTLSVKADFPTPSISDFEIPTSNIRRIICSTSGGFPEPHLSWLENGEELNAINTTVSQDPETELYAVSSKLDFNMTTNHSFMCLIKYGHLRVNQTFNWNTTKQEHFPDNLLPSWAITLISVNGIFVICCLTYCFAPRCRERRRNERLRRESVRPV: 15.7
